Tested target: Peroxisome proliferator-activated receptor gamma/Nuclear receptor coactivator 2 (Homo sapiens)
Assay procedure: TR-FRET dose response biochemical High Throughput Screening assay for agonists of the steroid receptor coactivator 2 (SRC-2) recruitment by the peroxisome proliferator-activated receptor gamma (PPAR gamma): non-selective agonists. [Related pubchem assays: 1297, 1032 ]
Assay type: functional
Measurement name: EC50

As a guide, the following entries are already answered.
Molecule	Result
Fc1ccccc1CSc1ncnc2c1oc1ccccc12	20 µM (not active)
COc1ccccc1C1CC(c2ccccc2)=NN1C(S)=Nc1ccccc1 (stereo unspecified)	10.6 µM (not active)
N#CC1=C2SCN(Cc3ccccc3)CN2C(=O)CC1c1cccs1 (stereo unspecified)	> 79.4 µM (not active)
Cc1ccnc(NC(=O)CSc2cc(=O)n(C)c3ccccc23)c1	> 79.4 µM (not active)
Cc1ccccc1S(=O)(=O)Nc1nc2ccccc2nc1N1CCOCC1	11.8 µM (not active)

Please find the next molecule below.
Recorded EC50 for COc1ccccc1OCC(=O)Nc1nnc(-c2ccco2)s1 , please?
32.1 µM (not active)

====

Tested target: UniProtKB P08659
Sequence (P08659 whole entry): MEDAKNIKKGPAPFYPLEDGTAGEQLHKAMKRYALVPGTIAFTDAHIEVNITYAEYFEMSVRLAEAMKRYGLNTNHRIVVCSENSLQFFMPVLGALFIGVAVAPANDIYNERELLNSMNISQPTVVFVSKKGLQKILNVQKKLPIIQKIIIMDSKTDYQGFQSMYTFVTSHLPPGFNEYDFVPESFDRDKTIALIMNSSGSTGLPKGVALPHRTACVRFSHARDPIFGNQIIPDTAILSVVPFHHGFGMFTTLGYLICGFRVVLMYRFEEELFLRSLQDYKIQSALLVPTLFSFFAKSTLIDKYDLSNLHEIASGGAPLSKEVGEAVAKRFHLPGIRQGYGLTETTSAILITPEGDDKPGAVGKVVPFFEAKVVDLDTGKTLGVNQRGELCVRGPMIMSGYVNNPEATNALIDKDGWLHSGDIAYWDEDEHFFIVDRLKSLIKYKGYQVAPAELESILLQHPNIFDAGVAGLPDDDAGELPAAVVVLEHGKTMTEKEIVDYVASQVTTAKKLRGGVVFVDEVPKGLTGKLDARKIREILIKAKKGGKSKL
Assay procedure: inhibition of purified Photinus pyralis luciferase – biochemical, luminescence, dose response (AID 1891)
The source made the active and inactive calls.
// EC50 lookup, one value per entry

Worked set:
1) COc1ccc(NC(=O)c2ccc(OC(F)F)cc2)cc1Cl 3.3 µM (active)
2) CCOC(=O)C1=C(C)NC(=O)NC1 > 112 µM (not active)
3) COc1ccccc1NC(=O)Nc1ccc(C(=O)N2CCCCC2)cc1 2.01 µM (active)
4) CCOc1ccc(C(=O)O/N=C(\N)c2ccccn2)cc1 0.847 µM (active)
5) Cc1ccc2oc(-c3ccc(NC(=O)c4cccnc4)cc3)nc2c1 > 112 µM (not active)

Fill blank: measured EC50 of the compound CCOC(=O)c1[nH]nc(-c2c(O)cc(C)cc2O)c1-c1csc(C)n1 is ____.
> 112 µM (not active)

Need EC50, item COc1ccccc1/C=N/Nc1nccnc1Cl
12.3 µM (active)

For the compound shown here, COc1cccc2nc3cc(C)c(C)cc3nc12 , give the reported EC50.
0.923 µM (active)

Reported EC50 for N=C(NOC(=O)c1ccc(Cl)cc1Cl)c1ccccc1 : what is it?
1.06 µM (active)

Please give the measured EC50 for this compound: Cc1occc1C(=O)Nc1cc(C(C)(C)C)on1
2.78 µM (active)

====

Tested target: Voltage-dependent T-type calcium channel subunit alpha-1H (Homo sapiens);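 further: channel activity triggered by adding a high calcium stimulation buffer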
Sequence (O95180 whole entry): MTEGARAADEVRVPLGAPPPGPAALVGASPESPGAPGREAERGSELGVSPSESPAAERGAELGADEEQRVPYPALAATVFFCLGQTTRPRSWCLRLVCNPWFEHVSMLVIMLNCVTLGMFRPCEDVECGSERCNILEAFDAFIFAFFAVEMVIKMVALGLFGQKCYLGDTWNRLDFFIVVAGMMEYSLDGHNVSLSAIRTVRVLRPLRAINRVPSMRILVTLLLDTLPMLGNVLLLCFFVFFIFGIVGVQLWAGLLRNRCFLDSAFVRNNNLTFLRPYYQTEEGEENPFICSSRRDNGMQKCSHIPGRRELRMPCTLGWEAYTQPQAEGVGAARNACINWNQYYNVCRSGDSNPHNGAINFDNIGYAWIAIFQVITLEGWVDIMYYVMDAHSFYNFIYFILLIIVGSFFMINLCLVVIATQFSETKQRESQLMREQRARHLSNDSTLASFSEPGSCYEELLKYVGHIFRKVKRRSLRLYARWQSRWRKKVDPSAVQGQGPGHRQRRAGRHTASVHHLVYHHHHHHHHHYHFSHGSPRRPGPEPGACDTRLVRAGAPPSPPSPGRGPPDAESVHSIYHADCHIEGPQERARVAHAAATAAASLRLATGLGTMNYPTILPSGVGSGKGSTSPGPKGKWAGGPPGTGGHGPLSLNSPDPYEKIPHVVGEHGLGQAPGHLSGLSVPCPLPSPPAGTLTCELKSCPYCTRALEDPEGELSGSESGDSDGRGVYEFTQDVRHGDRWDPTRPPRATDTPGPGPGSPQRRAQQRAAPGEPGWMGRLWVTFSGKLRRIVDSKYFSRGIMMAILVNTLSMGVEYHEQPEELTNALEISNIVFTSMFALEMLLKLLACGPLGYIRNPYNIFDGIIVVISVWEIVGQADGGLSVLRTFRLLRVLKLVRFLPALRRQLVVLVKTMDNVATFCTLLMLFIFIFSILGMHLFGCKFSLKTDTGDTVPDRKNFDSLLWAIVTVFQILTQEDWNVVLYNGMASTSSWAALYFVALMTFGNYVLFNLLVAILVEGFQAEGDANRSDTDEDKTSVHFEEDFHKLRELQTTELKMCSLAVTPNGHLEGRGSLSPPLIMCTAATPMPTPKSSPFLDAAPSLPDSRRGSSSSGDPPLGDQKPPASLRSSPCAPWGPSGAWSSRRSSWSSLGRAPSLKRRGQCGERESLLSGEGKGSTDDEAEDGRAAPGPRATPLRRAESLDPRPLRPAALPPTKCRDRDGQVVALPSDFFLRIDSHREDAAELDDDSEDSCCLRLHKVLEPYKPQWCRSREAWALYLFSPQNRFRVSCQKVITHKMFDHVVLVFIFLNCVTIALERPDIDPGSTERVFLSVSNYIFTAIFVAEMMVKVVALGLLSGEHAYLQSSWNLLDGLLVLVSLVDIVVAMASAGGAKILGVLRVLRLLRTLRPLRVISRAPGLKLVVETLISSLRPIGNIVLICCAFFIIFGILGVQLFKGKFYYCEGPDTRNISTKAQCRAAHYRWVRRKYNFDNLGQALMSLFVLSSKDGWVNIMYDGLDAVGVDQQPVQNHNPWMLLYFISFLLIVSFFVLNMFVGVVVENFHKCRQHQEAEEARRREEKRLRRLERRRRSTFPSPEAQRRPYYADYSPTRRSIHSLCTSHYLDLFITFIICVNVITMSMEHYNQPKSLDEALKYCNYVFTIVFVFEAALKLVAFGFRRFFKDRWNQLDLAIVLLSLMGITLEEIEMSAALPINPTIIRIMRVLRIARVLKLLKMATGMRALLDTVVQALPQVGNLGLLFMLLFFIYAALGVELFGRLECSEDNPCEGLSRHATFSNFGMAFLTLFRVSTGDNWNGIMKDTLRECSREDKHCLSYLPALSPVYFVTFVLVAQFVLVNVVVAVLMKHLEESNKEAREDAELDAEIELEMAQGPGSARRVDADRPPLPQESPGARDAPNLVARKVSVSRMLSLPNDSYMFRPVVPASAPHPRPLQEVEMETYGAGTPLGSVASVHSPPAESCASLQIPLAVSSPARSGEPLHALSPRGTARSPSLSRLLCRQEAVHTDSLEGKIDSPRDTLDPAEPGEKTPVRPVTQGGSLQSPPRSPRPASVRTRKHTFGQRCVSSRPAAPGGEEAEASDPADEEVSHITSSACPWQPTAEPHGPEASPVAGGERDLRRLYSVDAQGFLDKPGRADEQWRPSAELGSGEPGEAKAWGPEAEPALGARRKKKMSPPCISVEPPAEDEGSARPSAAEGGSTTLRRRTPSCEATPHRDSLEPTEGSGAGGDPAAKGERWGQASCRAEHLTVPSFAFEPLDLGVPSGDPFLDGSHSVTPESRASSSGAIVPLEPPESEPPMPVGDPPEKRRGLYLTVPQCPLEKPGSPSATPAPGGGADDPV
Assay type: functional
Active and inactive are the calls of the source.
Measurement name: EC50

Molecule	EC50
O=C(Nc1nnc(C(F)(F)F)s1)C1COc2ccccc2O1 (stereo not drawn)	6.26 µM (active)

Would you kindly share the measured EC50 for COc1ccc(-c2noc(CCC(=O)N3CCN(c4cc(C)ccc4C)CC3)n2)cc1 ?
3.63 µM (active)

# EC50 lookup, item CC(NC(=O)CCC(=O)NC(C)C1COc2ccccc2O1)C1COc2ccccc2O1 (stereo not drawn)
4.07 µM (active)

====

The following compounds are shown together with reported EC50 values.
Tested target: Peroxisome proliferator-activated receptor gamma/Nuclear receptor coactivator 1 (Homo sapiens)
Format: functional

1) Cc1nnc(O)nc1N/N=C/c1cccs1 > 79.4 µM (not active)

Need EC50 of CCOc1nc(-c2ccccc2)ccc1-c1noc(-c2cccs2)n1 , thanks.
25.8 µM (not active)

Value lookup for EC50; key = CCOC(=O)c1nn(-c2ccc(Cl)cc2)c2nc(-c3ccc(C)cc3)c(C#N)c(=O)n12
> 79.4 µM (not active)

Data request, read-out EC50, for CCOc1ccc(-c2csc(NNC3=NCCCCC3)n2)cc1
> 79.4 µM (not active)

====

Assay procedure: Luminescence Cell-Based Dose Confirmation HTS to Identify Activators of 5'UTR Stem-Loop Driven Alpha-Synuclein mRNA Translation in H4 Neuroglioblastoma Cells. [Related pubchem assays: 1829 (Project Summary), 1814 (Primary HTS)]
Type: functional
Activity calls are given as the source filed them.
compounds and their reported EC50

// worked examples, EC50 included
Compound	Result
Cc1ccc(-c2nnc(SCC(C)C)n2C)cc1	11.5 µM (active)
O=C(NCc1ccco1)c1cc2c(s1)CCCCC2	34 µM (active)

For the compound shown here, CC1CCC(NC(=O)N(CCCl)N=O)CC1 (centres undefined) , give the reported EC50.
5.98 µM (active)

Entry under review: O=C(OCC(=O)N1CCCC1=O)c1nc(Cl)c(Cl)c(Cl)c1Cl . Reported EC50?
14.4 µM (active)

====

Attribute: EC50
Tested on: Streptococcus
Assay procedure: GAS UMAA2166 growth inhibition – luminescence, BacTiterGlo, counter-screen for streptokinase expression inhibitor project, dose response (AID 1915);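 further: potency for reduction of bacterial viability or growth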
Type: functional, organism-based
The source made the active and inactive calls.

Example compounds with recorded EC50:
Compound	Tested target	EC50
Cc1cc(O)nc(SCC(=O)Nc2ccc(Br)cc2)c1C#N	Streptococcus	20.1 µM (active)
Cc1cc(C(=O)N/N=C/c2cc(Cl)cc([N+](=O)[O-])c2O)c2ccccc2n1	Streptococcus	1.51 µM (active)
CCOc1cccc2sc(Nc3nc4ccc(NC(C)=O)cc4s3)nc12	Streptococcus	> 150 µM (not active)
CC12CCC(C(=O)Nc3cccc(Cl)c3Cl)([C@H](Br)C1=O)C2(C)C (some centres not stated)	Streptococcus	> 150 µM (not active)
Cc1cccc(NC(S)=Nc2ccc(Cl)c(Cl)c2)c1	Streptococcus	> 150 µM (not active)
Cc1oc(C(C)(C)C)cc1C(=O)N1CCN(C(c2ccccc2)c2ccccc2)CC1	Streptococcus	16.4 µM (active)

Now look at this entry.
GET /values?readout=EC50&item= O=C(NNC(=S)NC(=O)c1ccco1)c1ccc(NC(=O)c2ccccc2)cc1
9.14 µM (active)

====

Tested target: Peroxisome proliferator-activated receptor gamma/Nuclear receptor coactivator 1 (Homo sapiens)
Assay procedure: TR-FRET dose response biochemical High Throughput Screening assay for agonists of the steroid receptor coactivator 1 (SRC-1) recruitment by the peroxisome proliferator-activated receptor gamma (PPAR gamma): non-selective agonists. [Related pubchem assays (depositor defined):AID1300, AID1808, AID504735, AID631]
Format: protein assay
Active and inactive are the calls of the source.
Respond using exactly one of the listed classes: y = active, n = inactive

Record excerpt, results attached:
Molecule	Group label
Cc1ccccc1S(=O)(=O)Nc1nc2ccccc2nc1N1CCOCC1	n
Fc1ccccc1CSc1ncnc2c1oc1ccccc12	n
COc1ccccc1OCC(=O)Nc1nnc(-c2ccco2)s1	n

State the result this test recorded for Cc1ccnc(NC(=O)CSc2cc(=O)n(C)c3ccccc23)c1 .
n

# outcome recorded in this test, key = COc1ccccc1C1CC(c2ccccc2)=NN1C(S)=Nc1ccccc1 (stereo not given)
y

====

Here the recorded IC50 is given for each entry.
Tested target: Polyadenylate-binding protein 1 (Homo sapiens, UniProt P11940)
Sequence (P11940 whole entry, the tested form may be a part): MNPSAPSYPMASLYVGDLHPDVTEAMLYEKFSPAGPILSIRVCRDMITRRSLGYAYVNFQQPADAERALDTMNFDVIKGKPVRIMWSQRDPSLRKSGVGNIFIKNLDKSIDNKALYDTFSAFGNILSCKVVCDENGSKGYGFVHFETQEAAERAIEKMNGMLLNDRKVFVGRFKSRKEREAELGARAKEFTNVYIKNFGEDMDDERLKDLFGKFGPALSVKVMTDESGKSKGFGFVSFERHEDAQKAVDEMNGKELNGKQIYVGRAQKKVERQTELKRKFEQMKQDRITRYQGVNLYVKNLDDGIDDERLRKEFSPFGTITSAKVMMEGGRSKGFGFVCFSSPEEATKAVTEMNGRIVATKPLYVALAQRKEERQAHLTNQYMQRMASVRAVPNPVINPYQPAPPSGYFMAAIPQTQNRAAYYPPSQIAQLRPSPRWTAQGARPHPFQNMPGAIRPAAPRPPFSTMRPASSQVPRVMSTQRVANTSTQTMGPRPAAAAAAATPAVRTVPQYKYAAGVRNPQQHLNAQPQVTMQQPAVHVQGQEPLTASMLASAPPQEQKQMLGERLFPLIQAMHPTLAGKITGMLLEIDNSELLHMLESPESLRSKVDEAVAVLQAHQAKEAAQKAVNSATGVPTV
Assay procedure: MLLE domain peptide-binding blockers, IC50 – biochemical, fluorescence polarization, FITC-PAM2 peptide, dose response (AID 602259)
Format: functional
Protocol conditions: read-out: IC50_Mean
The source made the active and inactive calls.

Examples from the recorded data:
1) O=C1CCn2c1c(O)c1ccccc1c2=O 43.6 µM (inactive)
2) O=C(CSc1n[nH]c2c3ccccc3nc-2n1)NCc1ccco1 > 66 µM (inactive)
3) Cc1cccc(NC(=S)Nc2ccc(Cl)c(Cl)c2)c1 > 66 µM (inactive)
4) Fc1ccc(NC(S)=Nc2ccc(Br)cc2)cc1 > 66 µM (inactive)

Query (molecule): COc1ccc(NS(=O)(=O)c2ccc(F)c(Cl)c2)cn1 ; field requested: IC50
24.2 µM (inactive)

Consider the molecule Cc1ccc2c(c1)c1ccc3c(c1n2C)C(=O)C=CC3=O and give its measured IC50.
> 66 µM (inactive)

Name the recorded IC50 for CCOc1ccc(-c2csc(NNC3=NCCCCC3)n2)cc1 .
> 66 µM (inactive)

# get_value(readout='IC50', item= Cn1sccc1=O )
> 66 µM (inactive)

Fill in: IC50 of CCCCCC(=O)NNC(=S)NC(=O)c1ccc([N+](=O)[O-])cc1 is ___
> 66 µM (inactive)

====

Cytochrome P450 2D6 (Homo sapiens) data, read-out AC50;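 further: CYP2D6 member of a cytochrome P450 panel assay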
Sequence (P10635 whole entry): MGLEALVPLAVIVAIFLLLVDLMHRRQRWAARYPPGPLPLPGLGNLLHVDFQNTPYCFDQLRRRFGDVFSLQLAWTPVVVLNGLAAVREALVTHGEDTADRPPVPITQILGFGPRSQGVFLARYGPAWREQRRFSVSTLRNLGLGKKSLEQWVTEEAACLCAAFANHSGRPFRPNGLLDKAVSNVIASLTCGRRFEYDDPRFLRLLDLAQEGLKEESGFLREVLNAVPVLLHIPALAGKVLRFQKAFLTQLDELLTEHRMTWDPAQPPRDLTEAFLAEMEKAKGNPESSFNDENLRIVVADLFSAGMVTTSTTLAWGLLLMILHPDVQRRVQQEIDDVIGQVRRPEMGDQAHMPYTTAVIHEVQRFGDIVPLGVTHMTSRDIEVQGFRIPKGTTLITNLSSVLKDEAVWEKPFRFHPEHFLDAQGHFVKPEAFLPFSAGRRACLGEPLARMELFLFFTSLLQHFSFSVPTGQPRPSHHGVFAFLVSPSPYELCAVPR

1) Cc1ccc(CNC(=O)c2nnn(-c3cccc(C)c3)c2N)cc1 39.8 µM (inconclusive)
2) CCOC(=O)NC(=O)CSc1nc2cc(OCC)ccc2[nH]1 0.562 µM (inconclusive)
3) O=C(NCCNS(=O)(=O)c1ccc(Cl)cc1)c1cc(OCC(F)(F)F)ccc1OCC(F)(F)F 3.16 µM (inconclusive)
4) COc1cc(O)oc1/C=N/c1ccc(C(F)(F)F)cc1 15.8 µM (inconclusive)
5) CC(C)OC(=O)c1cc2c(ccn2C)n1CC(=O)N1CCC(Cc2ccccc2)CC1 20 µM (inconclusive)
6) CCOc1ccccc1Nc1nc(-c2sc(NC(=O)c3ccccc3)nc2C)cs1 20 µM (inconclusive)
7) CCCNC(=O)OC[C@@H]1O[C@H](CCO/N=C(\C)CCN2CCCCc3nc(C)c(C)cc32)C=C[C@@H]1Oc1ccc(OC)cc1 2.51 µM (inconclusive)
8) CCCCCCCCSc1nnc(CSc2nc3nc(C)cc(C)n3n2)o1 28.2 µM (inconclusive)
9) CC(C)(C)c1cc(/C=C(\C#N)C(N)=S)cc(C(C)(C)C)c1O 39.8 µM (inconclusive)
10) N#Cc1cccc(NC(=O)N2CCCC3(CCN(C(=O)c4cccc(F)c4)CC3)C2)c1 39.8 µM (inconclusive)

Moving on to the next molecule.
Given the entry COc1ccc(-c2ccc3c(n2)CCCN3C[C@H](O)CN2CCCc3nc(C)c(C)cc32)cc1 , what AC50 was observed with Cytochrome P450 2D6 (Homo sapiens)?
3.16 µM (inconclusive)
